test system: human plasma; assay: Measurement of intrinsic coagulation time (APTT) in vitro; format: biochemical
Record form. Attribute: Concentration required to double coagulation time. Fill in for each entry.
The reply should contain only the number, in µM.

[in] Supply reported Concentration required to double coagulation time belonging to this molecule: COCC12CN(S(=O)(=O)C3=Cc4ccc(Cl)cc4OC3)CC(=O)N1CC1(CCN(c3ccncc3)CC1)O2 (stereo not shown)
[out] 0.22

[in] Supply reported Concentration required to double coagulation time belonging to this molecule: COCC12CN(S(=O)(=O)C=Cc3ccc(Cl)s3)CC(=O)N1CC1(CCN(c3ccncc3)CC1)N2C (stereo not shown)
[out] 0.18

[in] Supply reported Concentration required to double coagulation time belonging to this molecule: O=C(O)COCC12CN(S(=O)(=O)c3ccc4cc(Cl)ccc4c3)CC(=O)N1CC1(CCN(c3ccncc3)CC1)O2 (stereo not shown)
[out] 0.43

[in] Supply reported Concentration required to double coagulation time belonging to this molecule: O=C1CN(S(=O)(=O)C=Cc2ccc(Cl)s2)CC2OC3(CCN(c4ccncc4)CC3)CN12 (stereo not shown)
[out] 0.22

The measurements presented in this section are drawn from patent US7122662B2.
